The measurements presented in this section are drawn from the supplement of paper PMC10338343.

Listed sequences paired with reported pre-steady-state target cleavage rate
# Test system: EfPiwi piRISC loaded with L1MC piRNA (26 nt)
# protocol-notes: pre-steady-state target cleavage rate (min^-1); auxiliary factor: 500 nM Ephydatia muelleri Gtsf1; guide: L1MC piRNA 5'p-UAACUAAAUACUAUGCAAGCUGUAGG; higher = faster piRNA-guided slicing of the target
Would you mind answering with just the numeric figure?

UCCUGGAACAGCUAGCAAAGUAUUUAGUUA : 0.00366

Enter reported pre-steady-state target cleavage rate observed with EfPiwi piRISC loaded with L1MC piRNA (26 nt) for `UCCUGGAUCAGCUUGCAUAGUAAUUAGAUA`
0.00275

Enter reported pre-steady-state target cleavage rate observed with EfPiwi piRISC loaded with L1MC piRNA (26 nt) for `UCCUGCAACAGCUUGCUUAGUAUUUAGUUA`
0.0143

Enter reported pre-steady-state target cleavage rate observed with EfPiwi piRISC loaded with L1MC piRNA (26 nt) for `UCCUGCUACAGCUUGGAUAGUAUUUACAAA`
0.00306

Enter reported pre-steady-state target cleavage rate observed with EfPiwi piRISC loaded with L1MC piRNA (26 nt) for `UCCUGGAUGAGCUUGCAUAGUAUUUGAGUUA`
0.00491

Enter reported pre-steady-state target cleavage rate observed with EfPiwi piRISC loaded with L1MC piRNA (26 nt) for `UCCUCCUACACCUUGCAUAGUAAUUAGUUA`
0.0071

Enter reported pre-steady-state target cleavage rate observed with EfPiwi piRISC loaded with L1MC piRNA (26 nt) for `UCCUGCUACAGCUUGAUAGUAUUUAGUUA`
0.00658

Enter reported pre-steady-state target cleavage rate observed with EfPiwi piRISC loaded with L1MC piRNA (26 nt) for `UCCUGGUAGAGCUUGCAUAGUAUUUAGUAA`
0.00742

----------
# Test system: EfPiwi piRISC loaded with piRNA #1 (26 nt)
# protocol-notes: pre-steady-state target cleavage rate (min^-1); auxiliary factor: 500 nM Ephydatia muelleri Gtsf1; guide: piRNA #1 5'p-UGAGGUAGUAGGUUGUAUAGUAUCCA; MIWI and MILI are mouse PIWI proteins and EfPiwi is from a freshwater sponge; tags in brackets are library labels; higher = faster piRNA-guided slicing of the target
Our labelling divides records by pre-steady-state target cleavage rate into ranges: lo: < 0.005; mid: ≥ 0.005 and < 0.008; hi: ≥ 0.008

GGAGUGUGAUACUAUACAACCUACUACCUCA : hi
GGAGAGGAUACUAUACAACCUACUACCUUCA : hi
GGAGACCUAUGAUCACAACCUACUACCUCA : lo
GGAGACCUUACUAUACAACCUACUACCGCA : lo
GGAGACCUAACCAUACAACCUACUACCUCA : hi
GGAGACCUAACUAUACAACCUUCUACCUCA : mid
GGAGUCGAAACUAUACAACCUACUACCUCA : hi
GGAGACCUAACUAUACAACCUAGUACCACA : mid
GGAGUGGAUACAAUACAAGCUACUACCUCA : mid
GGAGAGGAUACUAUACAACCAACUACCACA : lo

Each sequence maps to one class by pre-steady-state target cleavage rate. Which class for `GGAGUGGAUAGUUUACAACCUACUACCUCA` ?
lo

Each sequence maps to one class by pre-steady-state target cleavage rate. Which class for `GGAGUGGAUACUAUACAACUACUACCUCA` ?
hi

Each sequence maps to one class by pre-steady-state target cleavage rate. Which class for `GGAGAGGAUAUUAUACAACCUACUACCUCA` ?
hi

Each sequence maps to one class by pre-steady-state target cleavage rate. Which class for `GGAGACCUAAUAUACAACCUACUACCUCA` ?
mid

Each sequence maps to one class by pre-steady-state target cleavage rate. Which class for `GGAGACCUAUGUAUACAACCUACAUGCUCA` ?
lo

Each sequence maps to one class by pre-steady-state target cleavage rate. Which class for `GGAGAGCAUACUAUACAACCUACUACCUGA` ?
mid

Each sequence maps to one class by pre-steady-state target cleavage rate. Which class for `GGAGACCUUACUAUAGAACCUACUACCUCA` ?
lo
